assay: Thermodynamic solubility in various biorelevant media; assay type: physicochemical; conditions: fasted state simulated intestinal fluid (FaSSIF), 25 °C, pH 6.8, fassif, thermodynamic from solid, FaSSIF pH 6.8; crystalline solid
Assay Readout: solubility at 25 h (µg/mL)
Please give a number only; it is taken to be in µg/mL.

Returns the measured solubility at 25 h for the input molecule. Input: CCOc1cccnc1Oc1cncc(-c2ncc(C(=O)N[C@H]3CCOC3)cn2)c1 [WO2018033832 Ex. 1, Form 1]
69

---

assay: Determination of pKa (capillary electrophoresis, Analiza, Inc.); type: physicochemical; settings: mean, read-out: Basic pKa (most basic pKa)
Structures can show the parent of a compound that is named as a salt.
Assay Readout: pKa
Would you mind answering with just the numeric figure?

As a guide, the following entries are already answered.
Look up pKa for this molecule: CCOc1cccnc1Oc1cncc(-c2ncc(C(=O)N[C@@H]3CNCC[C@@H]3F)cn2)c1 [Example 3, bis(trifluoroacetate) Salt]
8.1

// pKa lookup, key: CCOc1cccnc1Oc1cncc(-c2ncc(C(=O)N[C@H]3CCOC3)cn2)c1
2.4

So what's the measured pKa for this one? CCOc1cccnc1Oc1cncc(-c2ncc(C(=O)N[C@@H]3CCOC3)cn2)c1
2.5

Which pKa value is on record for CCOc1cc(F)cnc1Oc1cncc(-c2ncc(C(=O)N[C@@H]3CNCC[C@@H]3F)cn2)c1 [Example 1, bis(trifluoroacetate) Salt] ?
7.7

Lab note: next molecule to report on.
Find the recorded pKa belonging to CCOc1cccnc1Oc1cncc(-c2ncc(C(=O)NC3(CO)CCOC3)cn2)c1 (single isomer, unassigned) and report it.
2.3

---

assay: High throughput determination of intrinsic clearance in human hepatocytes; type: in vitro ADME; conditions: human, pooled cryopreserved human hepatocytes (10 donors), high throughput human hepatocyte assay; 0.5 million cells/mL, 1 μM test compound, 37° C.; mean +/− Std Dev; read-out: CLint (μL/min/10^6 cells) (+/− Std Dev)
Assay Readout: hepatocyte CLint at 1 μM (µL/min/1e6 cells)
Response body: numeric value in µL/min/1e6 cells, unit text excluded.

// lookup hepatocyte CLint at 1 μM for CCOc1cccnc1Oc1cncc(-c2ncc(C(=O)NC3CCS(=O)(=O)C3)cn2)c1 (stereo not drawn)
5.1

---
Given the entry CCOc1cccnc1Oc1cncc(-c2ncc(C(=O)N[C@@H]3CCOC3)cn2)c1 , report its measured hepatocyte CLint at 1 μM.
4.7

For the molecule shown here, CCOc1cc(F)cnc1Oc1cncc(-c2ncc(C(=O)N[C@H]3CCOC3)cn2)c1 , give the reported hepatocyte CLint at 1 μM.
9.3

Which hepatocyte CLint at 1 μM value belongs to CCOc1cccnc1Oc1cncc(-c2ncc(C(=O)NC3(C)CCS(=O)(=O)C3)cn2)c1 (stereo not drawn) ?
9.3

// lookup hepatocyte CLint at 1 μM for CCOc1cccnc1Oc1cncc(-c2ncc(C(=O)N[C@H]3CCC(C(F)(F)F)NC3)cn2)c1 (mixture of isomers)
12

---

Examples of compounds with documented IC50 follow.
molecular target: human DGAT2 (hDGAT2) (Homo sapiens (Human), UniProt Q96PD7)
Sequence (Q96PD7 whole entry): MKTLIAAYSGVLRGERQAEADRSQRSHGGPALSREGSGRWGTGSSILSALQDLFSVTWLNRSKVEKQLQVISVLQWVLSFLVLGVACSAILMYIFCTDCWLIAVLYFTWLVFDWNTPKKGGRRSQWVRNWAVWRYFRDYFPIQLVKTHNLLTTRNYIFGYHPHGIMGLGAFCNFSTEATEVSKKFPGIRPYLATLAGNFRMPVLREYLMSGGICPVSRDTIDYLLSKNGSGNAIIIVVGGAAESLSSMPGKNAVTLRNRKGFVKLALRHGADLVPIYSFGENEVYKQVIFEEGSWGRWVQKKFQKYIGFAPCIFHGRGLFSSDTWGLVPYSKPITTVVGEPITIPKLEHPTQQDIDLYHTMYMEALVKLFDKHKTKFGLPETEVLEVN
Where a name gives a salt, the structure may show the parent alone.

Worked examples follow.
What does the data say about its IC50? Entry: CCOc1cccnc1Oc1cncc(-c2ncc(C(=O)NC3CCS(=O)(=O)C3)cn2)c1 (stereo not shown) [WO2018033832 Ex. 3.3]
200 nM

Which IC50 value is on record for CCOc1cccnc1Oc1cncc(-c2ncc(C(=O)N[C@@H]3CNCC[C@@H]3F)cn2)c1 [Example 3, bis(trifluoroacetate) Salt] ?
40 nM

Give the measured IC50 of CCOc1cc(F)cnc1Oc1cncc(-c2ncc(C(=O)N[C@H]3CCOC3)cn2)c1 [WO2018033832 Ex. 8] .
3.3 nM

Kindly consider the entry below.
Field request: IC50 | item: CCOc1cccnc1Oc1cncc(-c2ncc(C(=O)NC3(C)CCS(=O)(=O)C3)cn2)c1 (stereo not shown) [WO2018033832 Ex. 3.1]
13 nM
